Data credit: PubChem BioAssay (NCI)

# experiment-description: NCI Yeast Anticancer Drug Screen. Data for the rad50 strain (AID 155);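 further: 0% = growth of vehicle-only cultures of the same strain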
# test-parameters: S. cerevisiae rad50 strain growth inhibition; at 50.0 µM; stronger effect = higher value
About 79,000 compounds went through this panel and 15% of them were active in at least one assay; those are over-represented in the sample as a whole.
Measured growth inhibition, listed per entry.
Form entry: value (%) — number only.

Use these answered entries as a reference point.
> print(dat)
                                   compound  reported.measurement
1                          CCOC(=O)CCCCCC#N                  1.35
2  COC(=O)CC(NC(=O)OCc1ccccc1)C(=O)NCC(=O)NCC(=O)O (centres undefined)                  15.8
3  CC1CC(C)(C)NC(c2ccccc2)O1 (centres undefined)                  1.75
4    OC(Cc1cccc(=S)[nH]1)(c1ccccc1)c1ccccc1                 -7.35
5         O=S(=O)(Nc1cccc(Cl)c1)c1ccc(F)cc1                 -8.45

Task: Using known records, supply growth inhibition for CC(C)c1cccc(C(C)C)c1NC(=O)C(=O)C(C(=O)c1ccccc1-c1ccccc1)C1OC(=O)c2ccccc21 (centres undefined)
Output: 8.2

Task: Complete the entry with growth inhibition for "CCOC(=O)c1ccc(NCc2ccc3nc(OC)c(OC)nc3c2)cc1"
Output: -5.7

Task: Kindly indicate its recorded growth inhibition. Item: CCOC(=O)CC(C(=O)OCC)C(C(=O)OCC)C(=O)OCC (centres undefined)
Output: 41.9

Task: Give the reported value of growth inhibition for this record: "Nc1nc(N)c(N=Nc2ccc([N+](=O)[O-])cc2)c(=O)[nH]1"
Output: -0.9

Task: Supply growth inhibition value. Item: "Cc1cc(C)nc(NS(=O)(=O)c2ccc(Nc3c4ccc(Cl)cc4nc4c(C(=O)NCCN(C)C)cccc34)cc2)n1"
Output: 0

Task: Fill in growth inhibition for record "Cc1cccc(NC(=O)c2cccc(C(=O)Nc3cccc(C)c3C)c2)c1C"
Output: -12.4

Task: Output growth inhibition of "COc1c(Br)cc(Br)cc1Br"
Output: -1.45

Task: Query growth inhibition for "CCCCCCCCCCCCCCCC[N+]1(CC)CCSCC1"
Output: 96.6

Task: Given "O=Cc1ccnc2c(Cl)cccc12" , respond with its growth inhibition.
Output: 16.4

Task: Note growth inhibition for the compound shown: "NCCS/C=C/C(=O)Oc1ccc(Br)cc1"
Output: 35.5

Task: Give the measured growth inhibition for "CN1c2ccccc2C(=O)NC12CCN(CCCC(=O)c1ccc(F)cc1)CC2"
Output: 6.6

Task: Provide growth inhibition value for the following compound: C/C=C(/C=O)[C@@H]1CC2c3c(c4ccccc4n3[C@@H](O)C1)CCN2C (some centres undefined)
Output: -5.45

Task: State its growth inhibition for this compound: "N#C/C(=C\c1ccc(Cl)cc1)C(=O)c1ccccc1"
Output: 9.4

###

Consider the following molecules and their measured growth inhibition readings.
# experiment-description: NCI Yeast Anticancer Drug Screen. Data for the mlh1 rad18 strain (AID 175)
# test-parameters: S. cerevisiae mlh1 rad18 strain growth inhibition; at 50.0 µM; stronger effect = higher value
About 79,000 compounds went through this panel and 15% of them were active in at least one assay; those are over-represented in the sample as a whole.
Write the value in % as a bare number.

Example cases with answers are listed next.
> print(dat)
                                   molecule  measurement.unit  reported.measurement
1                      CC(=O)N1OCCc2ccccc21                 %                 -1.45
2  CCCCCCC(/C=C/c1ccc(Cl)c(Cl)c1)=N\Nc1ccccc1                 %                 -12.3
3  Cc1ccc(N=Nc2c(O)c3ccccc3[nH]c2=O)c(S(=O)(=O)N(C)C)c1                 %                 -17.5

Task: Check the records and state growth inhibition for CC(Nc1cccc(Cl)c1)S(=O)(=O)O (stereo not given)
Output: -0.25

Task: Supply reported growth inhibition belonging to this molecule: "Cc1c(-c2ccccc2)c(-c2ccccc2)c(C)c(-c2ccc3c(c2)CCCC3)c1-c1ccccc1"
Output: -16.7

Task: Give the reported value of growth inhibition for this record: "Cn1c(-c2ccccc2)c2c(=O)oc3ccccc3c2c1-c1ccccc1"
Output: 19.1

Task: Tell me measured growth inhibition for C1CSCCSCCCSC2CCCCC2SC1 (stereo not given) please.
Output: 2.15

Task: Tell me its growth inhibition given CCCC(/C(C)=N/NC(N)=O)C1CCCCC1 (stereo not given) as the entry.
Output: 2
